src = ChEMBL document CHEMBL4765330

Test: in vitro
Details: mouse, NIH3T3 cells versus HT29 cells
Description: Selectivity index, ratio of IC50 for mouse NIH3T3 cells to IC50 for human HT29 cells incubated for 72 hrs by SRB assay
OBSERVABLE: selectivity ratio at 72 h
# answer = number (no unit)

Examples with answers:
SMILES_INPUT	VALUE_MEASURED
CCN(CC)c1ccc2c(-c3ccccc3C(=O)OCC(=O)[C@@]3(O)CC[C@H]4[C@@H]5CCC6=CC(=O)C=C[C@@]6(C)[C@H]5C(=O)C[C@@]43C)c3ccc(=[N+](CC)CC)cc-3oc2c1.[Cl-]	2.9
CCN(CC)c1ccc2c(-c3ccccc3C(=O)O[C@H]3CC[C@@]4(C)C(=CC[C@@H]5[C@@H]4CC[C@]4(C)C(c6cccnc6)=CC[C@@H]54)C3)c3ccc(=[N+](CC)CC)cc-3oc2c1	1.1

## Input Please report the recorded selectivity ratio at 72 h for CCN(CC)c1ccc2c(-c3ccccc3C(=O)O[C@H]3CC[C@H]4[C@@H]5CCC6=CC(=O)CC[C@]6(C)[C@H]5CC[C@]34C)c3ccc(=[N+](CC)CC)cc-3oc2c1.[Cl-] .
## Output 1.5
